# procedure.details: mitochondrial membrane potential change in A549 cells, profiling panel, cell-based, JC-1 fluorescence, basal, 24 h, 100 nL (AID 1138);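 further: A549 lung adenocarcinoma cells under basal conditions with no added stimulus; test concentration not given here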
# measurement.conditions: higher = more signal
reported.metric: z-score

// query z-score value for entry COC(=O)c1c2oc(c1C(=O)OC)C(=O)N(C)Cc1cn(nn1)C[C@H](Cc1ccccc1)NC(=O)N[C@H](CO)CC2
-0.209

// query z-score value for entry CC(C)C[C@@H]1NC(=O)[C@@H]2C[C@H](C(=O)NCCCCCN)[C@H](c3ccc(O)cc3)N2C1=O
-0.188

// query z-score value for entry COCCOC(=O)N1C(=O)[C@@]2(c3cc(C#CC4=CCCCC4)ccc31)[C@H](c1ccc(O)cc1)N1[C@H](c3ccccc3)[C@H](c3ccccc3)OC(=O)[C@H]1[C@@H]2C(=O)N1CCN(c2ncccn2)CC1
0.381

// query z-score value for entry COc1cc2c(cc1OC)CN(C(=O)[C@@H]1[C@H]3C(=O)O[C@H](c4ccccc4)[C@H](c4ccccc4)N3[C@H](c3ccc(OCCO)cc3)[C@@]13C(=O)Nc1ccc(C#CC4(O)CCCCCC4)cc13)CC2
-0.989

// query z-score value for entry COCCCNC(=O)[C@@]1(Cc2ccccc2N=[N+]=[N-])COC(c2ccc(OCCCO)cc2)=N1
0.961

// query z-score value for entry C=CCOC(=O)[C@H]1[C@@H]2C(=O)O[C@@H](c3ccccc3)[C@@H](c3ccccc3)N2[C@@H](c2ccc(OCCOC(=O)[C@@H]3C[C@@H]4C(=O)N[C@@H](CCCCNC(C)=O)C(=O)N4[C@@H]3c3ccc(O)cc3)cc2)[C@]12C(=O)Nc1ccc(I)cc12
-1.38

// query z-score value for entry COC(=O)C(CC#Cc1ccc2c(c1)[C@]1(C(=O)N2)[C@H](C(=O)N2CCN(c3ncccn3)CC2)[C@H]2C(=O)O[C@H](c3ccccc3)[C@H](c3ccccc3)N2[C@@H]1c1ccc(OCCO)cc1)C(=O)OC
-1.35

// query z-score value for entry COCCOC(=O)N1C(=O)[C@@]2(c3cc(C#CC4=CCCCC4)ccc31)[C@H](c1ccc(OCCO)cc1)N1[C@H](c3ccccc3)[C@H](c3ccccc3)OC(=O)[C@H]1[C@@H]2C(=O)N1CCN(c2ncccn2)CC1
-1.27

// query z-score value for entry C=C(CCCC)/C(=C/C[C@@H](OC(=O)c1ccncc1)c1ccccc1OCCO)c1cnc2ccccc2c1
1.34

// query z-score value for entry C=C(C)[C@@H]1CC=C(C(O)C2C=CC3C(=O)N(c4ccccc4)C(=O)C3N2Nc2ccccc2F)CC1 (some centres not stated)
-0.568

// query z-score value for entry CC(CO)N1C(=O)[C@@H]2[C@H]3C(=O)OCC=C[C@H]3OC23C=CCN(CCN2CCOCC2)C(=O)[C@@H]13 (some centres not stated)
0.659

// query z-score value for entry COc1ccc(CCN2C(=O)[C@@]3(Cc4ccccc42)c2ccccc2C(=O)N(Cc2ccccc2OC)[C@H]3c2ccc(CO)cc2)cc1
0.132

###

# procedure.details: splicing luciferase reporter signal modulators, primary screen, spliceosome inhibition project, cell-based, HEK293, splice +/- reporter (AID 1101);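 further: HEK293 cells carrying a splicing-competent luciferase reporter gene; test concentration not given here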
# measurement.conditions: luminescence, 24 h, higher = more signal, called active from +8 up or from −8 down
Activity calls are given as the source filed them.
reported.metric: z-score

// query z-score value for entry Cc1ccc(S[C@]2(C(=O)NCCCN(C)C)CC(=O)N(C3CCCCC3)[C@@H]2c2ccc(CO)cc2)cc1
0.104 (inactive)

// query z-score value for entry C[N+](C)(C)CCCCCCNC(=O)[C@H]1C[C@H]2C(=O)NCC(=O)N2[C@H]1c1ccc(O)cc1
-0.271 (inactive)

// query z-score value for entry COc1cc(OC)c(C(O)C2C=CC3C(=O)N(C)C(=O)C3N2NC(=O)OC(C)(C)C)cc1Br (stereo not drawn)
1.51 (inactive)

###

# Tested on: Sam68 (KHDRBS1)
# procedure.details: Sam68 small-molecule binders, primary screen, biochemical, small-molecule microarray, 635 nm fluorescence (AID 1125);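 further: score merges 667 nm channel intensity with signal to noise over triplicate slides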
# measurement.conditions: small-molecule microarray binding, higher = more signal
reported.metric: composite z-score
Number only, please.

Which composite z-score is reported with Sam68 (KHDRBS1) for this entry: C=C[C@@H](OC)[C@H](OC(=O)Nc1ccc(SC)cc1)c1ccc(O)c(F)c1 ?
1.07

Which composite z-score is reported with Sam68 (KHDRBS1) for this entry: COc1ccc([Si](C)(C)[C@H]2[C@H](CC(=O)N(CCO)Cc3ccccc3)O[C@@]3(C(=O)N(Cc4cccc(N5CCOC5=O)c4)c4ccccc43)[C@@H]2C)cc1 ?
1.3

Which composite z-score is reported with Sam68 (KHDRBS1) for this entry: CCOC(=O)C[C@H]1[C@H](OC(=O)c2cc3ccccc3oc2=O)[C@@H](NC(=O)c2ccc(-c3ccccc3)cc2)c2cc(OCCCO)ccc2N1C(=O)c1ccccc1 ?
1.32

Which composite z-score is reported with Sam68 (KHDRBS1) for this entry: NC(=O)N1C(=O)C2C(C1=O)C1C=C(CCCO)C2C(c2cccs2)N1Cc1cccc(OC(F)(F)F)c1 (centres undefined) ?
1.07

###

# procedure.details: small-molecule microarray binders of probe aNog, primary screen, biochemical, biotinylated probe, 635/667 nm fluorescence (AID 1115);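 further: probe is biotinylated aNog protein used at 0.15 µg/mL for 1 h at 4 C; z-score combines 667 nm fluorescence of each spot with its signal to noise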
# measurement.conditions: higher = more signal
Outcome label depends on composite z-score relative to -0.1: at/above gives label 1, below gives label 0.

Would you say CCCCC(=C=CC[C@@H](O)c1ccccc1OCCO)C[C@@H](O)COCc1ccccc1 shows composite z-score at minimum -0.1?
label 0

Would you say CO[C@]12C=C(Br)[C@@H](C[C@@H]1c1cccc(C)c1)[C@@]1(CO1)C2=O shows composite z-score at minimum -0.1?
label 1

Would you say CCCCCCCCCCC(O)C1C=CC2C(=O)N(C)C(=O)C2N1NC(=O)OC(C)(C)C (configuration not stated) shows composite z-score at minimum -0.1?
label 1

Would you say COCCOC(=O)N1C(=O)[C@@]2(c3cc(C#Cc4ccc(OC)cc4)ccc31)[C@H](C(=O)Nc1nc3ccccc3s1)[C@H]1C(=O)O[C@H](c3ccccc3)[C@H](c3ccccc3)N1[C@@H]2c1ccc(OCCO)cc1 shows composite z-score at minimum -0.1?
label 0

Would you say Cc1ccc(S[C@]2(C(=O)O)CC(=O)N(Cc3ccccc3Cl)[C@@H]2c2ccc(CO)cc2I)cc1 shows composite z-score at minimum -0.1?
label 0

Would you say COC(=O)[C@@]1(Cc2ccc(OC)cc2)[C@H]2c3cc(C(=O)N(C)C)n(CCO)c3C[C@H]2CN1C(=O)c1ccccc1 shows composite z-score at minimum -0.1?
label 0

Would you say COCC1=C2[C@@H](CCc3ccccc3)OB(O)C[C@@H]2[C@@H]2C(=O)C=CC(=O)[C@@H]2C1 shows composite z-score at minimum -0.1?
label 1

###

# procedure.details: adipocyte viability effects, profiling panel, cell-based, 3T3-L1 adipocytes, calcein-AM fluorescence, 48 h, basal (AID 1163); further: test concentration not given here
# measurement.conditions: 3T3-L1 adipocytes viability, higher = more signal
Provide the reported z-score of each item.
Number only, please.

// query z-score value for entry NCCCCCNC(=O)[C@@H]1C[C@@H]2C(=O)NCC(=O)N2[C@@H]1c1cccc(OCCO)c1
1.11

// query z-score value for entry CN(C)CCCNC(=O)[C@@]1(c2ccc([N+](=O)[O-])cc2)CC(=O)N(CC23CC4CC(CC(C4)C2)C3)[C@@H]1c1ccc(CO)cc1I
-0.0899

// query z-score value for entry C=CCC(OC(C)=O)[C@@H]1[C@@H](N(Cc2cccc3ccccc23)C(=O)Cc2ccc(F)cc2)c2cc(OCCCO)ccc2N1C(=O)c1ccc2ccccc2n1 (some centres not stated)
0.389

// query z-score value for entry COC(=O)[C@@]1(Cc2ccccc2N=[N+]=[N-])N=C(c2ccc(OCCCO)cc2)O[C@H]1c1ccccc1N=[N+]=[N-]
0.342

// query z-score value for entry COc1ccccc1CN1C(=O)c2ccccc2[C@](Cc2ccccc2I)(C(=O)NCC(F)(F)F)[C@@H]1c1ccc(CO)cc1
0.95

// query z-score value for entry NC(N)=NCCCn1cc(CNC(=O)[C@@H](N)Cc2ccccc2)nn1
-0.637

// query z-score value for entry C=CCC(OC(C)=O)[C@@H]1[C@@H](N(Cc2cccc3ccccc23)C(=O)Cc2ccc(OC)cc2)c2cc(OCCCO)ccc2N1C(=O)c1ccc2ccccc2n1 (some centres not stated)
1.69

// query z-score value for entry [N-]=[N+]=NCc1ccccc1C[C@]1(C(N)=O)N=C(c2ccc(OCCCO)cc2)O[C@H]1c1ccccc1
-0.0112

// query z-score value for entry CN(C)C(=O)[C@@]1(CCS(=O)(=O)c2ccccc2)N=C(c2ccc(OCCCO)cc2)O[C@H]1c1ccccc1
0.171

// query z-score value for entry COCCOC(=O)N1C(=O)[C@@]2(c3cc(C#Cc4ccc(OC)cc4)ccc31)[C@H](C(=O)Nc1nc3ccccc3s1)[C@H]1C(=O)O[C@H](c3ccccc3)[C@H](c3ccccc3)N1[C@@H]2c1ccc(OCCO)cc1
-0.106

// query z-score value for entry O=C1O[C@H](c2ccccc2)[C@H](c2ccccc2)N2[C@H]1[C@@H](C(=O)O)[C@]1(C(=O)Nc3ccc(C#CC4=CCCCC4)cc31)[C@H]2c1ccc(O)cc1
-0.029

// query z-score value for entry [N-]=[N+]=NCc1ccccc1C[C@@]1(C(=O)NCc2ccccc2)N=C(c2ccc(OCCCO)cc2)O[C@@H]1c1ccccc1N=[N+]=[N-]
-1.67

Origin of the recorded values: PubChem BioAssay
